protocol-summary: Solvent solubility screen of the compound of Formula II
Type: physicochemical
measurement-conditions: 40 °C, organic solvent or mixture, thermodynamic from solid; THF; (P) partial solubility at 100 volumes; read-out: Approximate solubility
measured-parameter: solubility

Any idea what its solubility is? The molecule is COc1ccc(CN2C3CC2CN(c2ccc(-c4cc(OCC(C)(C)O)cn5ncc(C#N)c45)cn2)C3)cn1
< 5000 µg/mL

###

protocol-summary: Solubility of the free base of the compound of Formula I in solvents and mixed solvent systems
Assay type: physicochemical
measurement-conditions: ACN, 25 °C, organic solvent or mixture, thermodynamic from solid; read-out: Solubility at 25° C.
measured-parameter: solubility (µg/mL)
Use µg/mL as the unit, but write only the number.

Any idea what its solubility is? The compound is COc1ccc(CN2CCN(c3ccc(-c4cc(-c5cnn(C)c5)cn5ncc(C#N)c45)cn3)CC2)cn1 [freebase of the compound of Formula I]
330

###

protocol-summary: Solubility of the free base of the compound of Formula I in solvents and mixed solvent systems
Type: physicochemical
measurement-conditions: 25 °C, organic solvent or mixture, thermodynamic from solid; 40% DMSO in EtOH, room temperature; read-out: Solubility
measured-parameter: solubility (µg/mL)
Use µg/mL as the unit, but write only the number.

Any idea what its solubility is? The compound is COc1ccc(CN2CCN(c3ccc(-c4cc(-c5cnn(C)c5)cn5ncc(C#N)c45)cn3)CC2)cn1 [freebase of the compound of Formula I]
610

###

protocol-summary: Solubility of the free base of the compound of Formula I in solvents and mixed solvent systems
Type: physicochemical
measurement-conditions: EtOH, 25 °C, organic solvent or mixture, thermodynamic from solid; read-out: Solubility at 25° C.
measured-parameter: solubility (µg/mL)
Use µg/mL as the unit, but write only the number.

Any idea what its solubility is? The compound is COc1ccc(CN2CCN(c3ccc(-c4cc(-c5cnn(C)c5)cn5ncc(C#N)c45)cn3)CC2)cn1 [freebase of the compound of Formula I]
40

###

protocol-summary: Stability screening of freebase and selected salts of Formula I, 40° C. and 75% RH, weekly HPLC over 4 weeks
measurement-conditions: stored at 40° C. and 75% RH; 4 weeks
measured-parameter: Stability, HPLC analysis, T = 4 weeks (%)
Use % as the unit, but write only the number.

COc1ccc(CN2CCN(c3ccc(-c4cc(-c5cnn(C)c5)cn5ncc(C#N)c45)cn3)CC2)cn1.Cl [HCl salt]    99.3
COc1ccc(CN2CCN(c3ccc(-c4cc(-c5cnn(C)c5)cn5ncc(C#N)c45)cn3)CC2)cn1 [Freebase I]    96.9
COc1ccc(CN2CCN(c3ccc(-c4cc(-c5cnn(C)c5)cn5ncc(C#N)c45)cn3)CC2)cn1.O=C(O)C[C@H](O)C(=O)O [L-malic acid salt]    97.3

Any idea what its Stability, HPLC analysis, T = 4 weeks is? The compound is COc1ccc(CN2CCN(c3ccc(-c4cc(-c5cnn(C)c5)cn5ncc(C#N)c45)cn3)CC2)cn1.O=C(O)C[C@@H](O)C(=O)O [D-malic acid salt]
97.1

###

protocol-summary: Solubility screening of the compound of Formula IV (freebase) in solvent mixtures
Format: physicochemical
measurement-conditions: organic solvent or mixture; MTBE, approximately 25° C.
measured-parameter: solubility

Any idea what its solubility is? The compound is CC(C)(O)COc1cc(-c2ccc(N3CCC(O)(Cc4ccccn4)CC3)nc2)c2c(C#N)cnn2c1
5500 µg/mL
